# Test system: Con-NCI-H82 cell
# PROTOCOL_DETAILS: CellTiter-Glo cell viability, Con-NCI-H82 cell (empty-vector control)
# Assay type: cell-based, human
# CONDITION_SET: Homo sapiens, NCI-H82, NCI-H82 transfected with empty virus vector (control), intracellular ATP, read-out: inhibitory effect on Con-NCI-H82 (IC50)
API: label(entry) gives class 1 if the entry's IC50 is strictly smaller than 600 nM; on equality or larger values it gives class 0.

Could you please tell me whether IC50 recorded for CCCCOc1c(OC)ccc2c1C(C(Cl)(Cl)Cl)N1CCc3cc4c(cc3C1=C2)OCO4 (centres unmarked) [AB35494] is less than 600 nM? class 1

Could you please tell me whether IC50 recorded for COc1ccc2c(c1N1CCN(C)CC1)C(C(Cl)(Cl)Cl)N1CCc3cc4c(cc3C1=C2)OCO4 (centres unmarked) [AB35518] is less than 600 nM? class 0

Could you please tell me whether IC50 recorded for COc1ccc2c(c1OCCCBr)CN1CCc3cc4c(cc3C1C2)OCO4 (centres unmarked) [AB31878] is less than 600 nM? class 0

Could you please tell me whether IC50 recorded for CCCCCC1c2c(ccc3c2OCO3)C=C2c3cc4c(cc3CCN21)OCO4 (centres unmarked) [AB36433] is less than 600 nM? class 1

Could you please tell me whether IC50 recorded for COc1ccc2c(c1OC)C(C1CCCC1)N1CCc3cc4c(cc3C1=C2CCCCCCBr)OCO4 (centres unmarked) [AB35523] is less than 600 nM? class 0
